# Read-out: Ezrin (EZR), EZR (gene 7430)
# assayProtocol: LTEA_HepaRG_EZR: Life Technologies and Expression Analysis (LTEA) Assay for Ezrin (EZR) using HepaRG (AID 2283491)
# conditionDetails: mRNA level, 48 h; actives raise or lower the signal
Active and inactive are the calls of the source. The calls were made as follows: active = hit-call score of the fitted dose curve at least 0.9, where 1 is the maximum; inactive = score below 0.9.
measuredQuantity: outcome

These solved cases illustrate the format of a correct answer.
[[record]]
compound = "CCOP(=S)(OCC)SCSP(=S)(OCC)OCC"
measuredquantity = "outcome"
measvalue = "inactive"

[[record]]
compound = "CC(C)(OO)c1ccccc1"
measuredquantity = "outcome"
measvalue = "inactive"

[[record]]
compound = "CCC(C)(C)c1ccc(O)c(C(C)(C)CC)c1"
measuredquantity = "outcome"
measvalue = "inactive"

[[record]]
compound = "O=c1[nH]c(=O)[nH]c(=O)[nH]1"
measuredquantity = "outcome"
measvalue = "inactive"

[[record]]
compound = "COc1cc(-c2ccc(N)c(OC)c2)ccc1N"
measuredquantity = "outcome"
measvalue = "inactive"

[[record]]
compound = "CCOP(=S)(OCC)Oc1nc(Cl)c(Cl)cc1Cl"
measuredquantity = "outcome"
measvalue = "inactive"


I am curious: what outcome value has been reported for `C[C@]12CCC(=O)C[C@@H]1CC[C@@H]1[C@@H]2CC[C@]2(C)[C@@H](O)CC[C@@H]12` ? inactive

Next: `Oc1cccc2cccnc12` inactive

Next: ClC1(Cl)C2(Cl)C3(Cl)C4(Cl)C(Cl)(Cl)C5(Cl)C3(Cl)C1(Cl)C5(Cl)C24Cl (stereo not drawn) inactive

* * *

# Read-out: Tissue Factor, F3 (gene 2152)
# assayProtocol: BSK_CASM3C_TissueFactor: BioMAP Diversity Plus: CASM3C Assay for Tissue Factor Biomarker Activity (AID 2283052);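 also: cell surface tissue factor protein level read by ELISA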
# conditionDetails: primary human coronary artery smooth muscle cells; actives raise or lower the signal
Activity calls are given as the source filed them. The calls were made as follows: active = hit-call score of the fitted dose curve at least 0.9, where 1 is the maximum; inactive = score below 0.9.
Give your call using only these classes: 1.0 for active, 0.0 for inactive

[[record]]
chemicalsmiles = "CN(C)N=O"
qualitativelabel = 0.0

[[record]]
chemicalsmiles = "CCNc1nc(NC(C)(C)C)nc(SC)n1"
qualitativelabel = 0.0

[[record]]
chemicalsmiles = "COc1cc(OC)nc(NC(=O)NS(=O)(=O)c2ncccc2C(=O)N(C)C)n1"
qualitativelabel = 0.0


Here is another compound to look at.
I would be grateful if you could indicate the recorded call for `CC(C)c1ccc(CO)cc1` . 0.0

* * *

# assayProtocol: ATG_NFI_CIS: Attagene CIS-FACTORIAL HepG2 Assay for human Nuclear Factor I (NFI) (AID 2282989)
# conditionDetails: HepG2 cis-regulatory reporter, NFI response element transcription; actives raise or lower the signal
Active and inactive are the calls of the source. Rule for the calls: active = hit-call score of the fitted dose curve at least 0.9, where 1 is the maximum; inactive = score below 0.9.
Give your call using only these classes: active, inactive

[[record]]
molecule = "O=S(=O)(c1ccc(Cl)cc1)c1ccc(Cl)cc1"
qualitativelabel = "inactive"


I would be grateful if you could indicate the recorded call for CCC(=O)C(CC(C)N(C)C)(c1ccccc1)c1ccccc1 (centres undefined) . inactive

Next: `O=CC=O` inactive

Next: `CCCCCCCCC(=O)NCc1ccc(O)c(OC)c1` active

Next: `O=C(CCl)CCl` inactive

Next: `CCC[CH2][Sn]([CH2]CCC)([CH2]CCC)[O]C(=O)c1ccccc1` inactive

Next: `COc1ccc(C=O)cc1` inactive

Next: `CCOP(=O)(CN(CCO)CCO)OCC` inactive

Next: CC(C)C1CCC(Cc2ccc(Cl)cc2)C1(O)Cn1cncn1 (centres undefined) inactive

Next: `C[C@]12CCC(=O)C[C@@H]1CC[C@@H]1[C@@H]2CC[C@]2(C)[C@@H](O)CC[C@@H]12` inactive

Next: `COc1ccccc1OC` inactive
